AC50 listing for selected compounds.
# System Under Test: human PAH with the R408W mutation (A375 R408W cells) (Homo sapiens, UniProt P00439, R408W)
# Construct: expressed in transfected cells
# Experimental Details: Cell Based Phenylalanine Flux Assay
# Condition Info: A375 R408W cells; 24 hrs with compound, then 20 μM sepiapterin and 800 μM 13C9,15N-Phenylalanine for 4 hours; 13C-Tyrosine by LC-MS; average where tested multiple times
Reported Endpoint: AC50

# Entry Smiles, Reported Endpoint, Reading
rows = [
    ("Cc1cc(F)c2oc([C@H]3c4nc[nH]c4CCN3C(=O)c3ocnc3C(F)F)nc2c1", "AC50", "≤ 500 nM"),
    ("O=C(CC1(O)CCC1)N1CCc2[nH]cnc2[C@H]1c1nc2cc(F)ccc2o1", "AC50", "500 to 1000 nM"),
    ("O=C(c1cnc(-c2ccccn2)o1)N1CCc2[nH]cnc2[C@H]1c1nc2cc(F)ccc2o1", "AC50", "500 to 1000 nM"),
    ("Cn1cc(-c2ccc3c(C(=O)N4CCc5[nH]cnc5[C@@H]4c4nc5c(F)cccc5o4)cnn3c2)cn1", "AC50", "1000 to 5000 nM"),
    ("Cc1cccc2nc([C@@H]3c4nc[nH]c4CCN3C(=O)c3nnc(-c4ncccc4F)o3)oc12", "AC50", "≤ 500 nM"),
    ("CC(C)(F)c1nnc(C(=O)N2CCc3[nH]cnc3[C@@H]2c2nc3c(F)ccc(F)c3o2)o1", "AC50", "≤ 500 nM"),
    ("COc1cccc2nc([C@@H]3c4nc[nH]c4CCN3C(=O)c3ncnn3C)oc12", "AC50", "500 to 1000 nM"),
    ("O=C(CCc1nccs1)N1CCc2[nH]cnc2[C@@H]1c1nc2cccc(F)c2o1", "AC50", "≥ 5000 nM"),
    ("Cc1cccc2oc([C@H]3c4nc[nH]c4CCN3C(=O)c3oc(C(C)(C)O)nc3C(F)F)nc12", "AC50", "1000 to 5000 nM"),
    ("CC(C)(O)c1nc(C(F)F)c(C(=O)N2CCc3[nH]cnc3[C@@H]2c2nc3cccc(OC(F)(F)F)c3o2)o1", "AC50", "500 to 1000 nM"),
    ("COc1cccc2oc([C@H]3c4nc[nH]c4CCN3C(=O)c3cnco3)nc12", "AC50", "1000 to 5000 nM"),
    ("Cc1ccc(F)c2nc([C@@H]3c4nc[nH]c4CCN3C(=O)c3oc(C(C)(C)O)nc3C(F)F)oc12", "AC50", "≤ 500 nM"),
    ("O=C(c1ccnn1C(F)(F)F)N1Cc2[nH]cnc2[C@H]1c1nc2ccccc2o1", "AC50", "1000 to 5000 nM"),
    ("COc1cccc2oc([C@@H]3c4nc[nH]c4CCN3C(=O)c3ccnn3C(F)F)nc12", "AC50", "≤ 500 nM"),
    ("Cc1ncoc1C(=O)N1CCc2[nH]cnc2[C@@H]1c1nc2ccc(F)cc2o1", "AC50", "1000 to 5000 nM"),
    ("Cc1ncoc1C(=O)N1CCc2[nH]cnc2[C@H]1c1nc2c(F)ccc(F)c2o1", "AC50", "≤ 500 nM"),
    ("Cc1ccc2oc([C@@H]3c4nc[nH]c4CCN3C(=O)c3ncc(Cl)s3)nc2c1", "AC50", "500 to 1000 nM"),
    ("Cc1cccc2oc([C@@H]3c4nc[nH]c4CCN3C(=O)c3ccnn3C(F)F)nc12", "AC50", "≤ 500 nM"),
    ("O=C(c1ocnc1C(F)F)N1CCc2[nH]cnc2[C@H]1c1nc2cc(Cl)cc(F)c2o1", "AC50", "≤ 500 nM"),
    ("CC(C)(O)c1nc(Cl)c(C(=O)N2CCc3[nH]cnc3[C@H]2c2nc3ccc(F)cc3o2)o1", "AC50", "500 to 1000 nM"),
    ("COc1ccc2c(C(=O)N3CCc4[nH]cnc4[C@@H]3c3nc4cc(F)ccc4o3)cnn2c1", "AC50", "≥ 5000 nM"),
    ("Cn1cncc1-c1nc(C(F)(F)F)c(C(=O)N2CCc3[nH]cnc3[C@@H]2c2nc3cc(F)ccc3o2)o1", "AC50", "1000 to 5000 nM"),
    ("Cn1cnc(-c2nnc(C(=O)N3CCc4[nH]cnc4[C@H]3c3nc4c(F)ccc(F)c4o3)o2)c1", "AC50", "500 to 1000 nM"),
    ("O=C(c1oc(-c2ncccn2)nc1C(F)F)N1CCc2[nH]cnc2[C@H]1c1nc2cccc(F)c2o1", "AC50", "≤ 500 nM"),
    ("[2H][C@@]1(c2nc3cc(F)ccc3o2)c2nc[nH]c2CCN1C(=O)c1oc(C(C)(C)O)nc1C(F)F", "AC50", "≤ 500 nM"),
    ("Cc1ccc2oc([C@H]3c4nc[nH]c4CCN3C(=O)c3nnc(-c4ccn(C(F)F)n4)o3)nc2c1", "AC50", "1000 to 5000 nM"),
    ("CC(C)(O)c1nc(CF)c(C(=O)N2CCc3[nH]cnc3[C@H]2c2nc3cc(F)ccc3o2)o1", "AC50", "500 to 1000 nM"),
    ("Cc1cnn(C)c1-c1nnc(C(=O)N2CCc3[nH]cnc3[C@H]2c2nc3cc(F)ccc3o2)o1", "AC50", "500 to 1000 nM"),
    ("O=C(c1ccnn1C(F)(F)F)N1CCc2[nH]cnc2[C@H]1c1nc2ccc(F)cc2o1", "AC50", "500 to 1000 nM"),
    ("Cc1ccc2nc([C@@H]3c4nc[nH]c4CCN3C(=O)c3nnc(-c4ncccc4F)o3)oc2c1", "AC50", "500 to 1000 nM"),
    ("Cn1cc(-c2nc(C(F)F)c(C(=O)N3CCc4[nH]cnc4[C@H]3c3nc4cc(F)ccc4o3)o2)cn1", "AC50", "500 to 1000 nM"),
]

* * *

# System Under Test: human PAH with the R408W mutation (A375 R408W cells) (Homo sapiens, UniProt P00439, R408W)
# Construct: expressed in transfected cells
# Sequence (P00439 1-452 R408W): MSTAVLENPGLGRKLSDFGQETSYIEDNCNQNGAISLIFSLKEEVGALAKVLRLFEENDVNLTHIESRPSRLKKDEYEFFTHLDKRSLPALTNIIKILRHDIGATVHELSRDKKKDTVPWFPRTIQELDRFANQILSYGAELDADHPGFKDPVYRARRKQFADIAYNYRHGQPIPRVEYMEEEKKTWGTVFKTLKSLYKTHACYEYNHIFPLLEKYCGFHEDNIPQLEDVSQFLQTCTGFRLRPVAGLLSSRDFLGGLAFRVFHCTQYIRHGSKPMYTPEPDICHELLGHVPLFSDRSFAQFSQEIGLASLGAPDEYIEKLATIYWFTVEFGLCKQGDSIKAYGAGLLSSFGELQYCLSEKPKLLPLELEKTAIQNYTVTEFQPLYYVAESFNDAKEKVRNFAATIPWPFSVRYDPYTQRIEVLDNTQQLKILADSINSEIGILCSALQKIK
# Experimental Details: Cell Based Phenylalanine Flux Assay
# Condition Info: A375 R408W cells; 24 hrs with compound, then 20 μM sepiapterin and 800 μM 13C9,15N-Phenylalanine for 4 hours; 13C-Tyrosine by LC-MS; average where tested multiple times
# AC50 listing for each entry below

# Molecule, AC50
rows = [
    ("Cc1cccc2nc([C@@H]3c4nc[nH]c4CCN3C(=O)c3nc(C(F)F)nn3C)oc12 [Example 613]", "≤ 500 nM"),
    ("CC(F)(F)c1ncoc1C(=O)N1CCc2[nH]cnc2[C@H]1c1nc2cc(F)ccc2o1 [Example 153]", "500 to 1000 nM"),
    ("Cc1ccc2oc([C@H]3c4nc[nH]c4CCN3C(=O)c3oc(-c4cn(C)cn4)nc3C(F)F)nc2c1 [Example 783]", "≤ 500 nM"),
    ("Cc1ccc2nc([C@@H]3c4nc[nH]c4CCN3C(=O)c3nnc(-c4ccn(C)n4)o3)oc2c1 [Example 357]", "500 to 1000 nM"),
    ("COc1cccc2nc([C@@H]3c4nc[nH]c4CCN3C(=O)c3cc(C)nn3C)oc12 [Example 821]", "≤ 500 nM"),
    ("CC(C)(O)c1nc(C(F)F)c(C(=O)N2CCc3[nH]cnc3[C@@H]2c2nc3c(F)c(F)ccc3o2)o1 [Example 348]", "1000 to 5000 nM"),
    ("CN(C)Cc1cn2ncc(C(=O)N3CCc4[nH]cnc4[C@H]3c3nc4cc(F)ccc4o3)c2cc1Cl [Example 203]", "500 to 1000 nM"),
    ("O=C(c1oc(-c2ccc(C(F)(F)F)cn2)nc1C(F)F)N1CCc2[nH]cnc2[C@@H]1c1nc2cc(F)ccc2o1 [Example 443]", "500 to 1000 nM"),
    ("CNc1cn2ncc(C(=O)N3CCc4[nH]cnc4[C@H]3c3nc4cc(F)ccc4o3)c2cc1Cl [Example 205]", "≤ 500 nM"),
    ("O=C(c1cnc(-c2ccccn2)s1)N1CCc2[nH]cnc2[C@@H]1c1nc2cc(F)ccc2o1 [Example 6]", "1000 to 5000 nM"),
    ("O=C(c1oc(C2(O)CC2)nc1C(F)F)N1CCc2[nH]cnc2[C@H]1c1nc2c(F)cccc2o1 [Example 215]", "500 to 1000 nM"),
    ("O=C(c1nnc(-c2ccccn2)o1)N1CCc2[nH]cnc2[C@@H]1c1nc2cccc(C(F)(F)F)c2o1 [Example 837]", "500 to 1000 nM"),
    ("O=C(c1cnc(-c2ccccn2)o1)N1CCc2[nH]cnc2[C@H]1c1nc2ccc(Br)cc2o1 [Example 7]", "500 to 1000 nM"),
    ("O=C(c1nnc(-c2ncccc2F)o1)N1CCc2[nH]cnc2[C@@H]1c1nc2cccc(F)c2o1 [Example 867]", "500 to 1000 nM"),
    ("O=C(c1cnco1)N1CCc2[nH]cnc2[C@@H]1c1nc2c(F)ccc(F)c2o1 [Example 484]", "1000 to 5000 nM"),
    ("O=C(c1nnc(-c2ccn(C(F)F)n2)o1)N1CCc2[nH]cnc2[C@@H]1c1nc2cccc(F)c2o1 [Example 861]", "500 to 1000 nM"),
    ("Cc1ccc2oc([C@H]3c4nc[nH]c4CCN3C(=O)c3nnc(-c4ncccc4F)o3)nc2c1 [Example 654]", "1000 to 5000 nM"),
    ("c1ccc2oc([C@@H]3c4nc[nH]c4CN3c3nc4ccccc4o3)nc2c1 (single isomer, unassigned) [Example 931]", "1000 to 5000 nM"),
    ("CC(C)(O)c1nc(C(F)F)c(C(=O)N2CCc3[nH]cnc3[C@H]2c2nc3cc(F)ccc3o2)o1 (single isomer, unassigned) [Example 107]", "≤ 500 nM"),
    ("Cn1cc(-c2nc(C(F)F)c(C(=O)N3CCc4[nH]cnc4[C@@H]3c3nc4cccc(F)c4o3)o2)cn1 [Example 635]", "500 to 1000 nM"),
    ("Cc1ccc2oc([C@H]3c4nc[nH]c4CCN3C(=O)c3nnc(-c4cc[nH]n4)o3)nc2c1 [Example 356]", "1000 to 5000 nM"),
    ("CC(C)(O)c1nc(C(F)F)c(C(=O)N2CCc3[nH]cnc3[C@H]2c2nc3cc(C(F)(F)F)ccc3o2)o1 [Example 327]", "≤ 500 nM"),
    ("O=C(c1ocnc1CC(F)F)N1CCc2[nH]cnc2[C@@H]1c1nc2cccc(F)c2o1 [Example 864]", "≤ 500 nM"),
    ("Cn1nc(Cl)cc1C(=O)N1CCc2[nH]cnc2[C@H]1c1nc2cc(F)ccc2o1 [Example 127]", "500 to 1000 nM"),
    ("Cc1ccc2nc([C@H]3c4nc[nH]c4CCN3C(=O)c3oc(C(C)(C)O)nc3C)oc2c1 [Example 320]", "≥ 5000 nM"),
    ("Cc1ccc(C)c2oc([C@H]3c4nc[nH]c4CCN3C(=O)c3oc(C(C)(C)O)nc3C(F)F)nc12 [Example 660]", "1000 to 5000 nM"),
    ("O=C(c1oc(-c2cncnc2)nc1C(F)F)N1CCc2[nH]cnc2[C@@H]1c1nc2cccc(F)c2o1 [Example 741]", "≤ 500 nM"),
    ("O=C(c1cnn2cc(N3CCN(C4CC4)CC3)ccc12)N1CCc2[nH]cnc2[C@@H]1c1nc2cc(F)ccc2o1 [Example 134]", "≥ 5000 nM"),
    ("Cn1nc(C(F)F)cc1C(=O)N1CCc2[nH]cnc2[C@@H]1c1nc2ccccc2o1 [Example 732]", "≥ 5000 nM"),
    ("O=C(c1ocnc1CC(F)F)N1CCc2[nH]cnc2[C@H]1c1nc2ccccc2o1 [Example 873]", "≤ 500 nM"),
]
